Tested on: rodent lifetime carcinogenesis bioassay, tumor incidence TD50
test_protocol: carcinogenic potency in animals, long-term in vivo studies, CPDB compilation (AID 1745844)
recorded_conditions: monkey; strain Rhesus [Macaca mulatta]; females; in feed; site: skin; lesion: papilloma; dosed 391 weeks; study length 521 weeks
Activity calls are given as the source filed them. No rule for the calls is given here.
assay_endpoint: TD50

Suppose we examine the compound C#C[C@]1(OC(C)=O)CC[C@H]2[C@@H]3CCC4=CC(=O)CC[C@@H]4[C@H]3CC[C@@]21C (tested in a mixture with another compound) ; what TD50 value has been reported?
10.1 mg/kg/day (inactive)

====

Tested on: rodent lifetime carcinogenesis bioassay, tumor incidence TD50
test_protocol: carcinogenic potency in animals, long-term in vivo studies, CPDB compilation (AID 1745844)
recorded_conditions: rat; strain Fischer 344; males; in drinking water; site: liver; lesion: hepatocellular carcinoma; dosed 97 weeks; study length 97 weeks
assay_endpoint: TD50 (mg/kg/day)
Hi! Could you send only the number? It should be in mg/kg/day, unit omitted.

Give TD50 (rodent lifetime carcinogenesis bioassay, tumor incidence TD50) of the following compound: COc1cc(-c2ccc(N=Nc3c(S(=O)(=O)O)cc4cc(S(=O)(=O)O)cc(N)c4c3O)c(OC)c2)ccc1N=Nc1c(S(=O)(=O)O)cc2cc(S(=O)(=O)O)cc(N)c2c1O
375

====

Test system: rodent lifetime carcinogenesis bioassay, tumor incidence TD50
test_protocol: carcinogenic potency in animals, long-term in vivo studies, CPDB compilation (AID 1745844)
recorded_conditions: mouse; strain B6C3F1; females; by gavage; site: forestomach; lesion: squamous-cell carcinoma + squamous-cell papilloma; dosed 88 weeks; study length 104 weeks
assay_endpoint: TD50

Suppose we examine the molecule ClCC(Cl)CCl ; what TD50 value has been reported?
0.828 mg/kg/day

====

Tested on: rodent lifetime carcinogenesis bioassay, tumor incidence TD50
test_protocol: carcinogenic potency in animals, long-term in vivo studies, CPDB compilation (AID 1745844)
recorded_conditions: mouse; strain B6C3F1; males; i.p.; site: liver; lesion: hepatocellular adenoma + hepatocellular carcinoma + neoplastic nodule; dosed 51 weeks; study length 83 weeks
assay_endpoint: TD50 (mg/kg/day)
Hi! Could you send only the number? It should be in mg/kg/day, unit omitted.

Suppose we examine the molecule CC(COc1ccccc1)N(CCCl)Cc1ccccc1 (stereo unspecified) ; what TD50 value has been reported?
5.84

====

System: rodent lifetime carcinogenesis bioassay, tumor incidence TD50
test_protocol: carcinogenic potency in animals, long-term in vivo studies, CPDB compilation (AID 1745844)
recorded_conditions: mouse; strain B6C3F1; males; in drinking water; site: thyroid gland; lesion: follicular-cell adenoma; dosed 103 weeks; study length 104 weeks
assay_endpoint: TD50

Suppose we examine the compound Nc1ccc(Cc2ccc(N)cc2)cc1 ; what TD50 value has been reported?
88.4 mg/kg/day

====

System: rodent lifetime carcinogenesis bioassay, tumor incidence TD50
test_protocol: carcinogenic potency in animals, long-term in vivo studies, CPDB compilation (AID 1745844)
recorded_conditions: rat; strain Sprague-Dawley; males; i.p.; site: subcutaneous tissue; lesion: sarcoma, NOS; dosed 32 weeks; study length 79 weeks
assay_endpoint: TD50 (mg/kg/day)
Hi! Could you send only the number? It should be in mg/kg/day, unit omitted.

Give TD50 (rodent lifetime carcinogenesis bioassay, tumor incidence TD50) of the following compound: S=P(N1CC1)(N1CC1)N1CC1
0.22

====

Tested on: rodent lifetime carcinogenesis bioassay, tumor incidence TD50
test_protocol: carcinogenic potency in animals, long-term in vivo studies, CPDB compilation (AID 1745844)
recorded_conditions: rat; strain Sprague-Dawley; males; by gavage; site: ear duct; lesion: carcinoma; dosed 104 weeks; study length 123 weeks
assay_endpoint: TD50 (mg/kg/day)
Hi! Could you send only the number? It should be in mg/kg/day, unit omitted.

Some compounds with recorded TD50:
# chemical_structure, subject_of_test, unit_symbol, TD50
measured = [
    ("CCc1ccccc1", "rodent lifetime carcinogenesis bioassay, tumor incidence TD50", "mg/kg/day", 18300),
    ("Cc1ccc(C)c(C)c1", "rodent lifetime carcinogenesis bioassay, tumor incidence TD50", "mg/kg/day", 18300),
]

Okay, next one:
Suppose we examine the compound Cc1cccc(C)c1 ; what TD50 value has been reported?
18300
